Run description: yeast display, Sf9 membrane polyspecificity reagent, FACS + sequencing; frameworks hold sequencing errors
Measured quantity: polyreactivity (PSR sort gate)

Known results for sequences:
Biosequence	Observed result
QVQLQESGVGLVQAYGSLRLSCAAIGSIFGYYYMGSYRQAPGKDRELVATINICGITNYADSVKGRFTISRDNAKYTVYLQMKSLKRDDTAVFYCAADEYAQRDLGYWGQGTQVTVSS	low polyreactivity
QVQLVESGGGLVQAGGSLRLSCAASGFTFYRYAMGWYRPAPGKERELVAAISSTGDRTYYADSVKGRFTISRDNAKNTVYLQMNSLKPEDTAVYYCAAPYQNQVEFNYWGQGTQVTVSS	high polyreactivity
QVQLVESGGGLVQAGGSLRLSCAASGSTFQRYAMGGSRQAPGKERELVAAITAGGSTYYADSVKGRFTISRDNAKNTVYLQLNSLKPEDTAVYYCNAAWFYRYGYWGQGTQVTVSS	high polyreactivity
QVQLVESGGGLVQAGGSHRLRCAAYGFIFIYAMGRYRQAPGKQRELVASIESGVSTDYADSVKGRFTISRDNAKNSVYFQMNSLKQEDTAVYYCAADQWSSLNYDYWGQGSQVTVSS	low polyreactivity
QVQLVESGGGLVQAGGSLRLSCAASGSTFASNAMGWYRQAPGKERELVAAISKRGGSTYYADSVKGRFTISRDNAKNTVYLQMNSLKPEDTSVYYCNADWTRSQYDYWGQGTQVTVSS	high polyreactivity
QVQLVDSGGGLVQAGGSLRLICAASGRTFGGNTMGWYREAPGKERELVAAISRRGGSTYYADSVKGRFSISRDNAKNTVYLQMNSLKPEDTAVYYCNKDGPSYSSYDYWGQGTQVTVSS	low polyreactivity
QVQLVESGGGLVQAGGSLRLSCAASGSIFPIYAMGWYRPAPGKERELVAAINRSGGSTYYADSVKGRFTISRDNAKNTVYLQMNSLKPEDTAVYYCNADYGYHNQLFWGYYGWSSDHWGQGTQVTVSS	low polyreactivity
QVQLVESGGGLVQAGGSLRLSCAASGSIFGGYAMGWYRQAPGKERELVATITRGGSTYYADSVKGRFTISRDNAKNTVYFQMNSLKPEDTAVYYCAARLRSKTYYTLEFDYWGQGTQVTVSS	high polyreactivity

Could you tell me polyreactivity (PSR sort gate) for each of these sequences? They are listed below.
1. QVQLVESGGGLVQAGGSLRLSCAASGRTFGIYAMGWYRQAPGKERELVAAIRWRDGSTYYADSVKGRFTISRDNAKNTVYLQMNSLKPEDTAVYYCAATSRVYVRGSYWKYGYWGQGTQVTVSS
2. QVQLVESGGGLVQAGGSLRLSCAASGFTFKYYSMGRYRQAPGKERELVAAISRGGRTNYADSVKGRFTISRDNAKNTVYLQMNSLKPEDTAVYYCAADGIYALFFTSGGIWFDYWGEGTQVTVSS
3. QVQLVESGGGLVQAGGSLRLSCAASGSIFGYYTMGWYRQAPGKERELVATISRSGGSTYYADSVKGRFTISRDNAKNTVYLQMNSLKPEDTAVYYCAARSWGGYDSRGYWGQGTQVTVSS

A)
high polyreactivity
low polyreactivity
high polyreactivity

* * *

Run description: yeast display, Sf9 membrane polyspecificity reagent, FACS + sequencing; frameworks hold sequencing errors
Measured quantity: polyreactivity (PSR sort gate)

Biosequence	polyreactivity (PSR sort gate)
QVQLVESGGGLVQAGGSLRLSCAASGLIFGRNAMGWYRQAPGKERELVAAISYRGGSTYYADSVKGRFTISRDNAKNTVYLQMNSLKPEDTAVYYCNRVWYAWGTGYDYWGQGTQVTVSS	high polyreactivity
QVQLVESGGGLVQAGGSLRLSCAASGSTFYSYAMGWYRQAPGKERELVAAITTSGGSTYYADSVKGRFTISRDNAKNTVYLQMNSLKPEDTAVYYCAAYDLYWYEYWGQGTQVTVSS	low polyreactivity
QVQLVESGGGLVQAGGSLRLRCAASGSTFEMYAMGWYRQEPGKERELVAAITWDTDSTYYADSVKGRFTISRDNAKNTVYLQMNSLKPEDTAVYYCNSQSGRASHYRGYGFDYWGQGTQVTVSS	high polyreactivity
QVQLVESGGGLVQAGGSLRLRCAASGFTFRFYAMGWYRQAPGKERELVAAISSTGIRTYYADSVKGRFTISRDNAKNTVYLQMNSLKPEDTAFYYCAILHRDSILDYWGQGTQVTVAS	high polyreactivity
QVQLVESGGGLVQAVGSLRLSCAASGHIFCYYTMGRYRQAPGKERELVAGITIGGSTNYADSVKGRFTISRDNAKNTVYLQMNSLKPEDTAVYYCNVVKYVYIYSYWEYYYWGQGTQVTVSS	low polyreactivity
QVQLVESGGGLVQAGGSLRLSCAASGRTFGHYAMGWYRQAPGKERELVAAITSRGGSTNYADSVKGRFTISRDNAKKTDYLQMNSLKPEDTAVYYCAARLSPEEGYWGQGTQVTVSS	high polyreactivity

Can you give me polyreactivity (PSR sort gate) for all of these, one by one?
1. QVQLVESGGGLVQAGRSLRLSCAASGRIFGWYAMGWYRQAPGKERELVAAIRWSGGSTYADSVKGRFTISRDNAKNTVYLQMNSLKPEDTAVYYCAALQRTGPYAGSSGYWGQGTQVTVSS
2. QVQLVESGGGLVQAGGSLRLSCAASGSIFDVYAMGWYRQAPGKERELVAGISRSGGSTYYADSVKGRFTISRDNAKNTVYLQMNSLKPEDTAVYYCAARYTYYRGRYDYWGQGTQVTVSS
3. QVQLVESGGGLVQAGGSLRLSCAASGGIFRVYAMGWYRQAPGKERELVAAISRSGSSTYYADSVKGRFTISRDNAKNTVYLQMTSLKPEDTAVYYCNAYSQYWLGNNYWGQGTQVTLSS
4. QVQLVESGGGLVQAGGSLRLSCAASGFIFGHYVMGWYRQAPGKERELVAAISVGGGRTYYADSVKGRFTISRDNAKNTVYLQMNSLKPEDTAVYYCRSYGYDYWGQGTQVTVSS

A)
high polyreactivity
low polyreactivity
high polyreactivity
high polyreactivity

Please state, for each entry, its recorded polyreactivity (PSR sort gate).
1. QVQHVESGGGLVQAGGSLRLSCAASGRTFNGYAMGWYRQAPGKERELVAAIRSTTGSTYYADSVKGRFTISRDNAKNTVYLQMNSLKPEETAVYYCAAAYPFYADMDYCGQGTQVTVSS
2. QVQLVESGGGLVQAGGSLRLSCAASGYTFGFYGMGWYRQAPGKERDLVAAISRSGGGSTYYADSVKGRFTISRDNAKNTVYLQMNSLKPEDTAVYYCNRDFDDEMWGQGTQVTVSS

A)
1. low polyreactivity
2. low polyreactivity

Hi team, please reply with polyreactivity (PSR sort gate) for each item in this list.
1. QVQLVESGGGLVQAGGSLRLSCAASGSTFPWNAMGWHRQAPGKERELVAAISKSGGRTYYADSVKGRFTISRDNAKNTVYLQMNSLRPEDTAVYYCNALGSLDGRYGYWGQGTQVTVSS
2. QVQLVESGGGLVQAGGSLRLSCAASGNTFIRYAMGWYRQAPGKEREFVATITKRGGSTYYADSVKGRFTISRDNAKNTVYLQMNSLKPEDTAVYYCARGPSGTPNGNTPYGDNRYNSWGQGTQVTVSS
3. QVQLVESGGGLVHAGGSLRLSCAASGSTFIRNAMGWYRQAPGKERELVAAISSSGGRTYYADSVKGRFTISRDNAKNTVYLQMNSLKPEDTAVYYCAARYVPPWGRRYYYWGQGTQVTVSS
4. QVQLVESGGGLVQAGGCLRLSCAASGSTFPRNAMGWYRQAPGKERELVATITSSGGGTYYADSVKGRFTISRDNAKNTVYLQMNILKPEDTAVYYCNADGPAGDAFDYCGQGTQVTVSS
5. QVQLVESGGGLVQAGGSLRLSCAASGSTFKYYVMGWYRQAPGKERELVAAITRSGSTNYADSVKGRFTISRDNAKNTVYLQMNSLKPEDTAVYYCAAERALSRYGYWGQGTQVTVSS
6. QVQLVESGGGLVQAGGSLRLSCAASGSIFVGYAMGWYRQAPGKERELVASINYSGGTTDYADSVKGRFTISRDNAKNTVYLQMNSLKPEDTAVYYCAKTAVDWSFTKGVDYDYWGQGTQVTVSS
7. QVQLVESGGRLVQAGGSLRLSCAASGRTFYRYAMGWYRQAPGKERELVAAITWSGGSTYYADSVKGRFTTSRDNAKNTVYLQMNSLKPEDTAVYYCAATKRRFVKFDYWGQGTQVTVSS

A)
["high polyreactivity", "low polyreactivity", "high polyreactivity", "low polyreactivity", "low polyreactivity", "low polyreactivity", "low polyreactivity"]

Kindly give each listed record's polyreactivity (PSR sort gate).
1. QVQLVESGGGLVQAGGSLRLSCAASGSTFDRYAMGWYRQAPGKERELVAAITRGGSTYYADSVKGRFTISRDNAKNTVYLQMNSLKPEDTAVYYCAARYRAYVKLTSYDWGQGTQVTVSS
2. QVQLVESRGGIVQAGGSLRLSCAASGSIFTGNAMGWYRQAPGKERELVAAITSSAGSTYYADSVKGRFTISRDNAQYTVYLQMNSLKPEDTAVYYCAKDYYSKHFPNYDYWGQGTQVTVSS

A)
1. high polyreactivity
2. low polyreactivity
